system: NCI/ADR-RES ovarian; experiment: NCI tumour cell line growth inhibition, 48 h; in the data active means GI50 below about 0.43 µM; inactive means the rest
The reply should be one of these categories: active, inactive

COc1ccc(Cc2cnc(NC(=O)c3sc4ccccc4c3Cl)s2)cc1    active
COc1ccc(-c2nn(-c3cccc(NC(=O)Nc4cc(C(F)(F)F)cc(C(F)(F)F)c4)c3)cc2-c2ccncc2)cc1Cl    inactive
CC[C@@H](C(=O)[C@@H](C)[C@@H](O)[C@H](C)[C@@H]1O[C@@H]([C@@H](CC)C(=O)O)CC[C@@H]1C)[C@H]1OC2(C=C[C@@H](O)[C@]3(CC[C@@](C)([C@H]4CC[C@](O)(CC)[C@H](C)O4)O3)O2)[C@H](C)C[C@@H]1C (some centres undefined)    inactive

Can you look up the reported call for "COc1cc([C@@H]2c3cc4c(cc3[C@@H](O[C@@H]3O[C@@H]5CO[C@@H](c6cccs6)O[C@H]5[C@H](O)[C@H]3O)[C@H]3COC(=O)[C@H]23)OCO4)cc(OC)c1O" for me?
inactive

Reference source for all entries: PubChem BioAssay (NCI)
